target: serotonin transporter (SERT) (Rattus norvegicus); construct: membranes prepared from either the rat cortical tissues or cells expressed with cloned-human transporters; from tissue; host or cells: rat cortical tissue membranes (inferred; the alternative is cells expressing cloned human SERT); experiment: In vitro binding affinity for SERT, radioligand [^3H]paroxetine (Table 1); design: species or system rat or human (cloned); details: read-out: Ki SERT
Sequence (P31652 whole entry): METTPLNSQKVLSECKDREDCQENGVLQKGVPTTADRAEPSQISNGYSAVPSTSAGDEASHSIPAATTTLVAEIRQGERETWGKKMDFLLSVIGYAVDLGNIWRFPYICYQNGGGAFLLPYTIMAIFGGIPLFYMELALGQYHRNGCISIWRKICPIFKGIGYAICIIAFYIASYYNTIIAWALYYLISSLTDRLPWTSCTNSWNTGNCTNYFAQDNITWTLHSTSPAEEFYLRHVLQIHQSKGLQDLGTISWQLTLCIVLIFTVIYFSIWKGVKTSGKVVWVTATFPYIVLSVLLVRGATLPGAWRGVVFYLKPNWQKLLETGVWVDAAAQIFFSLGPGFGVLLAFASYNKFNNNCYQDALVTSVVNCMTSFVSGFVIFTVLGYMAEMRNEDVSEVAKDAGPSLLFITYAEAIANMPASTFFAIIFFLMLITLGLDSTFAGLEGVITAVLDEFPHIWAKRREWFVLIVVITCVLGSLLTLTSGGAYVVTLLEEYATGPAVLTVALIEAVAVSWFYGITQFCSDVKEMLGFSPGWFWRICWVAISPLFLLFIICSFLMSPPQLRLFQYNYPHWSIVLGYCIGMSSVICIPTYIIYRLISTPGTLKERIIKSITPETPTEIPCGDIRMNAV
Measured Ki values are reported for all entries that follow.
Property Measured: Ki (nM)

• CN(C)Cc1ccccc1Sc1ccc(F)cc1N = 1.46
• CN(C)Cc1ccccc1Sc1ccc(C#N)cc1N = 0.87

----------
Regional activity wash-out: % decrease from peak to last scan, Occipital Cortex values for the compounds below.
tested on: SERT; test: Baboon PET imaging: brain uptake, kinetic analysis and SERT parameters; format: in vivo; details: last scan 90 minutes; baboons, mean ± SD of four experiments
Property Measured: Regional activity wash-out: % decrease from peak to last scan, Occipital Cortex

- [11CH3]Sc1ccc([C@H]2CN3CCC[C@H]3c3ccccc32)cc1 [[^11C]McN 5652]: 34 ± 3%
- CN(C)Cc1ccccc1Sc1ccc(I)cc1N [[^11C]ADAM]: 36 ± 10%
- CN(C)Cc1ccccc1Sc1ccc(Br)cc1N [[^11C]DAPA]: 18 ± 7%
- CN(C)Cc1ccccc1Sc1ccc(C#N)cc1N [[^11C]DASB]: 65 ± 11%
- CN([11CH3])Cc1ccccc1Sc1ccc(CF)cc1N [[^11C]AFM]: 42 ± 27%

----------
system: SERT; assay: Baboon PET imaging: brain uptake, kinetic analysis and SERT parameters; assay type: in vivo; conditions: BP = VT ROI − VT CER; baboons, mean ± SD of four experiments
Property Measured: Binding potential Midbrain (mL/g)

* CN([11CH3])Cc1ccccc1Sc1ccc(CF)cc1N [[^11C]AFM] | 65.8
* CN(C)Cc1ccccc1Sc1ccc(Br)cc1N [[^11C]DAPA] | 40.0
* CN(C)Cc1ccccc1Sc1ccc(C#N)cc1N [[^11C]DASB] | 29.1
* [11CH3]Sc1ccc([C@H]2CN3CCC[C@H]3c3ccccc32)cc1 [[^11C]McN 5652] | 25.9
* CN(C)Cc1ccccc1Sc1ccc(I)cc1N [[^11C]ADAM] | 28.5

----------
Observed Ki for dopamine transporter (DAT) (Homo sapiens, UniProt Q01959), reported per entry below.
Property Measured: Ki

* CN(C)Cc1ccccc1Sc1ccc(C#N)cc1N | > 10 µM
* Cc1ccc(Sc2ccccc2CN(C)C)c(N)c1 | > 10 µM
* CN(C)Cc1ccccc1Sc1ccc(CCF)cc1N | > 10 µM
* CN(C)Cc1ccccc1Sc1ccc(F)cc1N | > 10 µM
* CN(C)Cc1ccccc1Sc1ccc(CF)cc1N | > 10 µM
* CN(C)Cc1ccccc1Sc1ccc(CCCF)cc1N | > 10 µM
* CN(C)Cc1ccccc1Sc1ccc(I)cc1N | > 10 µM

----------
experiment: Biodistribution of labeled radioligands in male Sprague-Dawley rats; assay type: in vivo; details: 10 min post-injection; mean ± SD, n = 3
As shown below, each of these compounds has a reported % ID/g Cerebellum value.
Property Measured: % ID/g Cerebellum (% ID/g)

• CN(C)Cc1ccccc1Sc1ccc(CCF)cc1N [[^11C]AFE] = 0.31
• CN(C)Cc1ccccc1Sc1ccc([18F])cc1N [[^18F]AFA] = 0.38
• CN(C)Cc1ccccc1Sc1ccc(CC[18F])cc1N [[^18F]AFE] = 0.28
• CN(C)Cc1ccccc1Sc1ccc(C[18F])cc1N [[^18F]AFM] = 0.33
• CN([11CH3])Cc1ccccc1Sc1ccc(CF)cc1N [[^11C]AFM] = 0.40
• Cc1ccc(Sc2ccccc2CN(C)[11CH3])c(N)c1 [[^11C]MADAM] = 1.04
• CN([11CH3])Cc1ccccc1Sc1ccc(F)cc1N [[^11C]AFA] = 0.35

----------
system: SERT; test: Baboon PET imaging: brain uptake, kinetic analysis and SERT parameters; type: in vivo; details: male, baboon, brain, striatum, intravenous; one-tissue compartment model; baboons, mean ± SD of four experiments; read-out: VT Striatum
Property Measured: Kp

* CN(C)Cc1ccccc1Sc1ccc(Br)cc1N [[^11C]DAPA] | 52.1
* CN(C)Cc1ccccc1Sc1ccc(I)cc1N [[^11C]ADAM] | 46.3
* CN(C)Cc1ccccc1Sc1ccc(C#N)cc1N [[^11C]DASB] | 31.7

----------
test system: SERT; assay: Baboon PET imaging: brain uptake, kinetic analysis and SERT parameters; type: in vivo; settings: one-tissue compartment model; baboons, mean ± SD of four experiments
Could you please mark Condition met for values of K2 Thalamus below 0.02 min⁻¹ and Condition not met for values at or above it?

* CN(C)Cc1ccccc1Sc1ccc(C#N)cc1N [[^11C]DASB] | Condition not met
* CN([11CH3])Cc1ccccc1Sc1ccc(CF)cc1N [[^11C]AFM] | Condition met
* [11CH3]Sc1ccc([C@H]2CN3CCC[C@H]3c3ccccc32)cc1 [[^11C]McN 5652] | Condition met
* CN(C)Cc1ccccc1Sc1ccc(Br)cc1N [[^11C]DAPA] | Condition met

----------
assay: Biodistribution of labeled radioligands in male Sprague-Dawley rats; assay type: in vivo; conditions: 10 min post-injection; mean ± SD, n = 3
Recorded % ID/g Blood for the following molecules
Property Measured: % ID/g Blood (% ID/g)

* Cc1ccc(Sc2ccccc2CN(C)[11CH3])c(N)c1 [[^11C]MADAM] | 0.61
* CN([11CH3])Cc1ccccc1Sc1ccc(CF)cc1N [[^11C]AFM] | 0.37
* CN(C)Cc1ccccc1Sc1ccc(CCF)cc1N [[^11C]AFE] | 0.15
* CN(C)Cc1ccccc1Sc1ccc([18F])cc1N [[^18F]AFA] | 0.27
* CN([11CH3])Cc1ccccc1Sc1ccc(F)cc1N [[^11C]AFA] | 0.26
* CN(C)Cc1ccccc1Sc1ccc(CC[18F])cc1N [[^18F]AFE] | 0.25
* CN(C)Cc1ccccc1Sc1ccc(C[18F])cc1N [[^18F]AFM] | 0.37

----------
assay: Biodistribution of labeled radioligands in male Sprague-Dawley rats; assay type: in vivo; conditions: 30 min post-injection; mean ± SD, n = 3
Parameter % ID/g Thalamus: see the listing below.
Property Measured: % ID/g Thalamus (% ID/g)

* Cc1ccc(Sc2ccccc2CN(C)[11CH3])c(N)c1 [[^11C]MADAM] | 1.66
* CN(C)Cc1ccccc1Sc1ccc(CC[18F])cc1N [[^18F]AFE] | 0.39
* CN(C)Cc1ccccc1Sc1ccc(C[18F])cc1N [[^18F]AFM] | 0.88
* CN([11CH3])Cc1ccccc1Sc1ccc(F)cc1N [[^11C]AFA] | 0.44
* CN(C)Cc1ccccc1Sc1ccc([18F])cc1N [[^18F]AFA] | 0.69
* CN(C)Cc1ccccc1Sc1ccc(CCF)cc1N [[^11C]AFE] | 0.44
* CN([11CH3])Cc1ccccc1Sc1ccc(CF)cc1N [[^11C]AFM] | 1.18

----------
experiment: Plasma free fraction (f1) and filter retention by ultrafiltration; format: in vitro ADME, baboon; conditions: male; baboon plasma, ultrafiltration; mean ± SD of four experiments
Property Measured: fraction unbound at 20 minutes

* CN(C)Cc1ccccc1Sc1ccc(C#N)cc1N [[^11C]DASB] | 0.135

----------
Biological target: SERT (Rattus norvegicus)
Sequence (P31652 whole entry): as above
Assay: In vitro binding assay on rat frontal cortex homogenates using [^3H]paroxetine
Design: from tissue; host or cells: frontal cortex of male Sprague-Dawley rats, washed membrane homogenate
Conditions: 22° C., mean ± SD, n = 3; read-out: Ki for SERT at 22° C.
Procedure: In vitro binding assays: Measurement of the inhibition constants (Ki) of the labeled compounds in FIG. 1 on rat frontal cortex homogenates were performed at Columbia University using [^3H]paroxetine, as previously described (Laruelle et al., 1988b). Briefly, male Sprague-Dawley rats (250-300 g) were killed by decapitation. Dissection of the brain was carried out on ice and samples of the frontal cortex were stored at −40° C. until binding assay. […]
pKi: −log10 of the molar value.
Property Measured: pKi

* CN(C)Cc1ccccc1Sc1ccc(I)cc1N | 9.49
* CN(C)Cc1ccccc1Sc1ccc(C#N)cc1N | 9.06
* CN(C)Cc1ccccc1Sc1ccc(Br)cc1N | 9.42
* CN(C)Cc1ccccc1Sc1ccc(CF)cc1N | 9.64

----------
system: SERT; test: Baboon PET imaging: brain uptake, kinetic analysis and SERT parameters; assay type: in vivo; conditions: one-tissue compartment model; baboons, mean ± SD of four experiments
Give Yes when the value for K1 Midbrain is at least 1 mL/g/min. Give No when it is less.

* [11CH3]Sc1ccc([C@H]2CN3CCC[C@H]3c3ccccc32)cc1 [[^11C]McN 5652] | No
* CN(C)Cc1ccccc1Sc1ccc(C#N)cc1N [[^11C]DASB] | Yes
* CN([11CH3])Cc1ccccc1Sc1ccc(CF)cc1N [[^11C]AFM] | Yes
* CN(C)Cc1ccccc1Sc1ccc(Br)cc1N [[^11C]DAPA] | No
